System: Mycobacterium tuberculosis
Test: Cornell M. t heat shock assay; further: in the data most compounds retested in dose-response had high values
Type: functional, organism-based
Set-up: dose or concentration left out as unconfirmed
Among all 69,000 compounds or so, about 950 (1.4%) showed an effect of 50% or more. Only a selection was taken, and strong results are over-represented in it overall.
Observed Property: Percent Effect (%)

{"columns": ["Compound", "Observed Property", "Reported Value"],
 "data": [
  ["CCN1CCC2(CC1)CC(NCc1cccs1)c1ccccc1O2.O=C(O)C(F)(F)F.O=C(O)C(F)(F)F (centres undefined)", "Percent Effect", -24.55],
  ["Cc1ccc(-n2nnc(C(=O)NCC3CCCCC3)n2)cc1", "Percent Effect", 10.71],
  ["O=C(O)C(F)(F)F.O=C(O)C(F)(F)F.O=S(=O)(c1cccnc1)N1C[C@H]2CCC[C@@]2(COc2ccccn2)C1", "Percent Effect", -13.75],
  ["O=C(NCCc1cccnc1)c1nc2c(s1)CCCN2C(=O)C1CC1.O=C(O)C(F)(F)F", "Percent Effect", 31.31],
  ["O=C(CCc1nnc(-c2ccccc2)o1)N1CCCC1c1ccc[nH]1 (centres undefined)", "Percent Effect", -1.66],
  ["CCCC(=O)N1C[C@@H]2CCN(c3cnccn3)C[C@@H]2C1.O=C(O)C(F)(F)F", "Percent Effect", -8.378],
  ["CNC(=O)CN1CCCC12CCN(C(=O)c1ccoc1)CC2.O=C(O)C(F)(F)F", "Percent Effect", 6.336],
  ["CCCS(=O)(=O)N1CCCC(c2nc(-c3ccccc3)c[nH]2)C1 (centres undefined)", "Percent Effect", 97.89],
  ["CCN1CCC2(CCC(=O)N2Cc2cccc(C)n2)CC1.O=C(O)C(F)(F)F.O=C(O)C(F)(F)F", "Percent Effect", -30.9]
]}

These data points were gathered from ChEMBL document CHEMBL3988442.
